Each entry below lists one item and its recorded pKi value.
Target: UniProt:P33533
Sequence (P33533 whole entry): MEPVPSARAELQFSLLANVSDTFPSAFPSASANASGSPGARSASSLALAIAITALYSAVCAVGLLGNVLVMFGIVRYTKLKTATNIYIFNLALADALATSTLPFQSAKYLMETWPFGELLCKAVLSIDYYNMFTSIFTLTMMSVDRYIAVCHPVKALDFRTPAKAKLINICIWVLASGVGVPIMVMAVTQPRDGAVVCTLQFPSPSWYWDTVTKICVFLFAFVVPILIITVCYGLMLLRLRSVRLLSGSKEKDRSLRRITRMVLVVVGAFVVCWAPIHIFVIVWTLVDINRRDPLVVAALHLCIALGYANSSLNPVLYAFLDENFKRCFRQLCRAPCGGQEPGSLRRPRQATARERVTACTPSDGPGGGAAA
Assay: Radioligand binding, delta sites, displacement of [3H]DADLE in rat brain membranes
Set-up: Rat membranes were prepared each day using a partially thawed frozen rat brain; from tissue; host or cells: rat brain membranes
pKi: −log10 of the molar value.
reportedProperty: pKi

> print(dat)
                                   compound  valuemeasured
1  O=[N+]([O-])c1cnc2c(c1)CC1(O)C3Cc4ccc(O)c5c4C1(CCN3CC1CC1)C2O5 (stereo not shown)           8.26
2  Oc1ccc2c3c1OC1c4ncc(Br)cc4CC4(O)C(C2)N(CC2CC2)CCC314 (stereo not shown)           8.92
3  Nc1sc2c(c1C(=O)OCc1ccccc1)[C@@H]1Oc3c(O)ccc4c3[C@@]13CCN(CC1CC1)[C@H](C4)[C@]3(O)C2           8.15
4  CCOC(=O)c1c(N)sc2c1[C@@H]1Oc3c(O)ccc4c3[C@@]13CCN(CC1CC1)[C@H](C4)[C@]3(O)C2           8.30
